The values you see were collected from patent US20200079833A1.

cAMP INS1e assay EC50, Mean pM GLP-1R values for the binders below.
system.tested: T1, GLP-1R in the INS1e assay (UniProt P32301 22-463, limits assumed)
T1 sequence (looked up): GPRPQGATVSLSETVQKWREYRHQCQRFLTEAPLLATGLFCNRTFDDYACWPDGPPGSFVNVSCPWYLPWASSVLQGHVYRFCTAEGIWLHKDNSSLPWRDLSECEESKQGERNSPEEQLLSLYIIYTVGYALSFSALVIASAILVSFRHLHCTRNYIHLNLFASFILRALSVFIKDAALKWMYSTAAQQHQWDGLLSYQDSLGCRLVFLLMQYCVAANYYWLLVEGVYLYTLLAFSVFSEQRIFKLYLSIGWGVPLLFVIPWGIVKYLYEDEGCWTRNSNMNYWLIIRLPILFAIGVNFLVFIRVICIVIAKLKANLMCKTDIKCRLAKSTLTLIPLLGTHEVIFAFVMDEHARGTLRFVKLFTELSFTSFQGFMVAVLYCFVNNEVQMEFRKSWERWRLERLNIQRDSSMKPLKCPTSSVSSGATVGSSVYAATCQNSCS
test.method.notes: cell-based or functional assay
Starred links: 1 amine or outer side, 2 acyl side, 3 side chain; linkers in the order of their positions; H or OH if unused. Non-standard residues stand in square brackets, D forms with d. Groups on a side chain read outwards from the residue. Primed or numbered codes have the meaning given here. No end group written: not given here. *: point of attachment. γGlu = O=C(O)[C@H](CCC(=O)[*:2])N[*:1]; αMeF = C[C@](N)(Cc1ccccc1)C(=O)O; αMeK = C[C@](N)(CCCCN)C(=O)O; Lauroyl = CCCCCCCCCCCC(=O)*; αMeS = C[C@](N)(CO)C(=O)O; PEG2′ = not defined here; Aib = CC(C)(N)C(=O)O
Please don't drop the unit; write it after the number.

// below: answered binders
H[Aib]EGS[αMeF]TSDV[αMeS]SK([PEG2′-PEG2′-γGlu-Lauroyl])LEGK([PEG2′-PEG2′-γGlu-Lauroyl])AA[αMeK]EFIAFK([PEG2′-PEG2′-γGlu-Lauroyl])VEGG-NH2 [SEQ ID NO: 480]
6530 pM
H[Aib]EGS[αMeF]TSDV[αMeS]SYK([PEG2′-PEG2′-γGlu-Lauroyl])EGEAA[αMeK]K([PEG2′-PEG2′-γGlu-Lauroyl])FIAK([PEG2′-PEG2′-γGlu-Lauroyl])VVEGG-NH2 [SEQ ID NO: 470]
3660 pM
H[Aib]EGS[αMeF]TSDV[αMeS]SYK([PEG2′-PEG2′-γGlu-Lauroyl])EK([PEG2′-PEG2′-γGlu-Lauroyl])EAA[αMeK]EFIAK([PEG2′-PEG2′-γGlu-Lauroyl])VVEGG-NH2 [SEQ ID NO: 467]
8920 pM

Field: next binder
// query Param item = H[Aib]EGS[αMeF]TSDV[αMeS]SK([PEG2′-PEG2′-γGlu-Lauroyl])LEGEAA[αMeK]K([PEG2′-PEG2′-γGlu-Lauroyl])FIK([PEG2′-PEG2′-γGlu-Lauroyl])FVVEGG-NH2 [SEQ ID NO: 450] ; retrieve measured cAMP INS1e assay EC50, Mean pM GLP-1R.
// result 6810 pM
